The origin of these recorded values is patent US20150337013A1.

System: Staphylococcus aureus SAU.42 (ATCC 29213)
Format: cell-based
Conditions: ATCC 29213
Let's look at some compounds and their measured Sa42 MIC.
Form entry: value (µg/mL) — number only.

{"columns": ["compound", "systemName", "assayReadout", "measuredNumber"],
 "data": [
  ["CCCC1CCC(c2ccc(C(=O)N[C@@H](Cc3c[nH]c4ccccc34)C(=O)N[C@H](CC(N)=O)C(=O)N[C@@H](CC(=O)O)C(=O)N[C@@H]3C(=O)NCC(=O)N[C@@H](CCCN)C(=O)N[C@@H](CC(=O)O)C(=O)N[C@H](C)C(=O)N[C@@H](CC(=O)O)C(=O)NCC(=O)N[C@H](CO)C(=O)N[C@@H]([C@H](C)CC(=O)O)C(=O)N[C@@H](CC(=O)c4ccccc4N)C(=O)O[C@@H]3C)cc2)CC1 (single isomer, unassigned) [53 isomer II]", "Staphylococcus aureus SAU.42 (ATCC 29213)", "Sa42 MIC", 0.5]
]}

Here's the next entry for you.
Could you tell me which Sa42 MIC is on file for CCCCCCCCC(=O)N[C@@H](Cc1c[nH]c2ccccc12)C(=O)N[C@H](CC(N)=O)C(=O)N[C@@H](CC(=O)O)C(=O)N[C@@H]1C(=O)NCC(=O)N[C@@H](CCCN)C(=O)N[C@@H](CC(=O)O)C(=O)N[C@H](C)C(=O)N[C@@H](CC(=O)O)C(=O)NCC(=O)N[C@H](CO)C(=O)N[C@@H]([C@H](C)CC(=O)O)C(=O)N[C@@H](CC(=O)c2ccccc2N)C(=O)O[C@@H]1C [Compound 1] ?
8

###

Tested on: Staphylococcus aureus SAU.278, Daptomycin resistant mutant (D10)
Format: cell-based
Details: MHBc with 50 mg/L calcium, 18-20 hours at 37° C.
Each item that follows carries a reported Sa278 MIC.

{"columns": ["compound", "Sa278 MIC"],
 "data": [
  ["CCCCCCCCCCCCC(=O)N[C@@H](Cc1c[nH]c2ccccc12)C(=O)N[C@H](CC(N)=O)C(=O)N[C@@H](CC(=O)O)C(=O)N[C@@H]1C(=O)NCC(=O)N[C@@H](CCCN)C(=O)N[C@@H](CC(=O)O)C(=O)N[C@H](C)C(=O)N[C@@H](CC(=O)O)C(=O)NCC(=O)N[C@H](CO)C(=O)N[C@@H]([C@H](C)CC(=O)O)C(=O)N[C@@H](CC(=O)c2ccccc2N)C(=O)O[C@@H]1C", "2 mg/L"],
  ["CCCCCCCCCCCCCCCOc1ccc(C(=O)N[C@@H](Cc2c[nH]c3ccccc23)C(=O)N[C@H](CC(N)=O)C(=O)N[C@@H](CC(=O)O)C(=O)N[C@@H]2C(=O)NCC(=O)N[C@@H](CCCN)C(=O)N[C@@H](CC(=O)O)C(=O)N[C@H](C)C(=O)N[C@@H](CC(=O)O)C(=O)NCC(=O)N[C@H](CO)C(=O)N[C@@H]([C@H](C)CC(=O)O)C(=O)N[C@@H](CC(=O)c3ccccc3N)C(=O)O[C@@H]2C)cc1", "16.00 mg/L"],
  ["CCCCCCCCCC(C)NC(=O)N[C@@H](Cc1c[nH]c2ccccc12)C(=O)N[C@H](CC(N)=O)C(=O)N[C@@H](CC(=O)O)C(=O)N[C@@H]1C(=O)NCC(=O)N[C@@H](CCCN)C(=O)N[C@@H](CC(=O)O)C(=O)N[C@H](C)C(=O)N[C@@H](CC(=O)O)C(=O)NCC(=O)N[C@H](CO)C(=O)N[C@@H]([C@H](C)CC(=O)O)C(=O)N[C@@H](CC(=O)c2ccccc2N)C(=O)O[C@@H]1C (single isomer, unassigned) [14 isomer II]", "1 mg/L"],
  ["CCCCCc1ccc(C(=O)N[C@@H](Cc2c[nH]c3ccccc23)C(=O)N[C@H](CC(N)=O)C(=O)N[C@@H](CC(=O)O)C(=O)N[C@@H]2C(=O)NCC(=O)N[C@@H](CCCN)C(=O)N[C@@H](CC(=O)O)C(=O)N[C@H](C)C(=O)N[C@@H](CC(=O)O)C(=O)NCC(=O)N[C@H](CO)C(=O)N[C@@H]([C@H](C)CC(=O)O)C(=O)N[C@@H](CC(=O)c3ccccc3N)C(=O)O[C@@H]2C)cc1", ">32 mg/L"],
  ["CCCOc1ccc(-c2ccc(C(=O)N[C@@H](Cc3c[nH]c4ccccc34)C(=O)N[C@H](CC(N)=O)C(=O)N[C@@H](CC(=O)O)C(=O)N[C@@H]3C(=O)NCC(=O)N[C@@H](CCCN)C(=O)N[C@@H](CC(=O)O)C(=O)N[C@H](C)C(=O)N[C@@H](CC(=O)O)C(=O)NCC(=O)N[C@H](CO)C(=O)N[C@@H]([C@H](C)CC(=O)O)C(=O)N[C@@H](CC(=O)c4ccccc4N)C(=O)O[C@@H]3C)cc2)cc1", "4 mg/L"]
]}

Look at this compound and give its reported Sa278 MIC. C[C@H](CC(=O)O)[C@@H]1NC(=O)[C@@H](CO)NC(=O)CNC(=O)[C@H](CC(=O)O)NC(=O)[C@@H](C)NC(=O)[C@H](CC(=O)O)NC(=O)[C@H](CCCN)NC(=O)CNC(=O)[C@@H](NC(=O)[C@H](CC(=O)O)NC(=O)[C@@H](CC(N)=O)NC(=O)[C@H](Cc2c[nH]c3ccccc23)NC(=O)CCCCCCC2CCCCC2)[C@@H](C)OC(=O)[C@H](CC(=O)c2ccccc2N)NC1=O
1 mg/L

Request the reported Sa278 MIC associated with CCCCCOc1ccc(/C=C/C(=O)N[C@@H](Cc2c[nH]c3ccccc23)C(=O)N[C@H](CC(N)=O)C(=O)N[C@@H](CC(=O)O)C(=O)N[C@@H]2C(=O)NCC(=O)N[C@@H](CCCN)C(=O)N[C@@H](CC(=O)O)C(=O)N[C@H](C)C(=O)N[C@@H](CC(=O)O)C(=O)NCC(=O)N[C@H](CO)C(=O)N[C@@H]([C@H](C)CC(=O)O)C(=O)N[C@@H](CC(=O)c3ccccc3N)C(=O)O[C@@H]2C)cc1
2 mg/L

Which value of Sa278 MIC has been reported for CCCCCCOc1ccc(C(=O)N[C@@H](Cc2c[nH]c3ccccc23)C(=O)N[C@H](CC(N)=O)C(=O)N[C@@H](CC(=O)O)C(=O)N[C@@H]2C(=O)NCC(=O)N[C@@H](CCCN)C(=O)N[C@@H](CC(=O)O)C(=O)N[C@H](C)C(=O)N[C@@H](CC(=O)O)C(=O)NCC(=O)N[C@H](CO)C(=O)N[C@@H]([C@H](C)CC(=O)O)C(=O)N[C@@H](CC(=O)c3ccccc3N)C(=O)O[C@@H]2C)cc1 in the records?
4.00 mg/L

Would you mind telling me what Sa278 MIC value was observed for CC(C)CCCCCCCCCCC(=O)N[C@@H](Cc1c[nH]c2ccccc12)C(=O)N[C@H](CC(N)=O)C(=O)N[C@@H](CC(=O)O)C(=O)N[C@@H]1C(=O)NCC(=O)N[C@@H](CCCN)C(=O)N[C@@H](CC(=O)O)C(=O)N[C@H](C)C(=O)N[C@@H](CC(=O)O)C(=O)NCC(=O)N[C@H](CO)C(=O)N[C@@H]([C@H](C)CC(=O)O)C(=O)N[C@@H](CC(=O)c2ccccc2N)C(=O)O[C@@H]1C ?
0.5 mg/L

I am curious: what Sa278 MIC value has been reported for CCCCCCCCC1CC1C(=O)N[C@@H](Cc1c[nH]c2ccccc12)C(=O)N[C@H](CC(N)=O)C(=O)N[C@@H](CC(=O)O)C(=O)N[C@@H]1C(=O)NCC(=O)N[C@@H](CCCN)C(=O)N[C@@H](CC(=O)O)C(=O)N[C@H](C)C(=O)N[C@@H](CC(=O)O)C(=O)NCC(=O)N[C@H](CO)C(=O)N[C@@H]([C@H](C)CC(=O)O)C(=O)N[C@@H](CC(=O)c2ccccc2N)C(=O)O[C@@H]1C (single isomer, unassigned) [27 isomer I] ?
8 mg/L

###

Documented Sa42 MIC across a set of molecules
Test system: Staphylococcus aureus SAU.42 (ATCC 29213)
Assay type: cell-based
Settings: ATCC 29213
Numeric only. Scale: µg/mL

{"columns": ["molecule", "Sa42 MIC (µg/mL)"],
 "data": [
  ["CCCCCCCCCC(=O)N[C@@H](Cc1c[nH]c2ccccc12)C(=O)N[C@H](CC(N)=O)C(=O)N[C@@H](CC(=O)O)C(=O)N[C@@H]1C(=O)NCC(=O)N[C@@H](CCCN)C(=O)N[C@@H](CC(=O)O)C(=O)N[C@H](C)C(=O)N[C@@H](CC(=O)O)C(=O)NCC(=O)N[C@H](CO)C(=O)N[C@@H]([C@H](C)CC(=O)O)C(=O)N[C@@H](CC(=O)c2ccccc2N)C(=O)O[C@@H]1C [Daptomycin, reference compound]", 0.5]
]}

// next entry
Name the reported Sa42 MIC value associated with the molecule CCCCCc1ccc(C(=O)N[C@@H](Cc2c[nH]c3ccccc23)C(=O)N[C@H](CC(N)=O)C(=O)N[C@@H](CC(=O)O)C(=O)N[C@@H]2C(=O)NCC(=O)N[C@@H](CCCN)C(=O)N[C@@H](CC(=O)O)C(=O)N[C@H](C)C(=O)N[C@@H](CC(=O)O)C(=O)NCC(=O)N[C@H](CO)C(=O)N[C@@H]([C@H](C)CC(=O)O)C(=O)N[C@@H](CC(=O)c3ccccc3N)C(=O)O[C@@H]2C)cc1 [Compound 31]
4
